Reported melting point by item:
REPORTED_PROPERTY: melting point

# MOLECULE, REPORTED_PROPERTY, READING
measured = [
    ("COc1ccc(C(c2ccc(C#N)cc2)n2cncn2)cc1OCc1ccccc1 (stereo not drawn) [19f]", "melting point", "91 to 93 °C"),
    ("Brc1ccc(C(c2ccccc2)n2ccnc2)cc1 (stereo not drawn) [20c]", "melting point", "126 to 128 °C"),
    ("N#Cc1ccc(C(c2ccc(OCc3ccccc3)cc2)n2cncn2)cc1 (stereo not drawn) [19g]", "melting point", "79 to 81 °C"),
    ("COc1ccc(C(c2cc(OC)c(OC)c(OC)c2)n2cncn2)cc1OCc1ccccc1 (stereo not drawn) [19a]", "melting point", "98 to 100 °C"),
    ("COc1ccc(C(c2ccc(C#N)cc2)n2cncn2)cc1O (stereo not drawn) [19h]", "melting point", "168 to 170 °C"),
    ("c1ccc(COc2ccc(C(c3ccccc3)n3cncn3)cc2)cc1 (stereo not drawn) [13j]", "melting point", "132 to 134 °C"),
    ("O=C(Nc1ccc(C(c2ccccc2)n2cncn2)cc1)C(F)(F)F (stereo not drawn) [13i]", "melting point", "143 to 145 °C"),
    ("Fc1ccc(C(c2ccccc2)n2cncn2)cc1 (stereo not drawn) [13c]", "melting point", "96 to 99 °C"),
    ("COc1cc(C(c2cc(OC)c(OC)c(OC)c2)n2ccnc2)cc(OC)c1OC [21i]", "melting point", "154 to 156 °C"),
    ("Oc1ccc(C(c2ccccc2)n2cncn2)cc1 (stereo not drawn) [13n]", "melting point", "189 to 191 °C"),
    ("COc1ccc(C(c2cc(OC)c(OC)c(OC)c2)N2CCN(c3ccccc3)CC2)cc1OCc1ccccc1 (stereo not drawn) [27g]", "melting point", "124 to 126 °C"),
    ("Nc1ccc(C(c2ccccc2)n2cncn2)cc1 (stereo not drawn) [13m]", "melting point", "149 to 151 °C"),
    ("Brc1ccc(C(c2ccccc2)N2CCCC2)cc1 (stereo not drawn) [25b]", "melting point", "70 to 72 °C"),
    ("CCOc1ccc(C(c2ccccc2)n2cncn2)cc1 (stereo not drawn) [13l]", "melting point", "98 to 100 °C"),
    ("COc1cc(C(c2ccccc2)n2cncn2)cc(OC)c1OC (stereo not drawn) [16e]", "melting point", "139 to 140 °C"),
]

* * *

System: HCT-15
Assay: NCI 60 cell line screen (Colon Cancer)
Type: cell-based, human
Details: HCT-15, single dose 10 µM
Lab note: anything with Growth percentage at or over 50% counts as fulfilled; the rest go in not fulfilled.

# COMPOUND, SYSTEM_NAME, CLASS_LABEL
records = [
    ("COc1ccc(C(c2cc(OC)c(OC)c(OC)c2)N2CCCCC2)cc1 (centres unmarked) [26b]", "HCT-15", "not fulfilled"),
    ("COc1ccc(C(c2cc(OC)c(OC)c(OC)c2)n2cncn2)cc1O (centres unmarked) [19e]", "HCT-15", "not fulfilled"),
    ("COc1ccc(C(c2cc(OC)c(OC)c(OC)c2)n2ccnc2)cc1O (centres unmarked) [21l]", "HCT-15", "not fulfilled"),
    ("COc1ccc(C(c2cc(OC)c(OC)c(OC)c2)N2CCN(Cc3ccccc3)CC2)cc1 (centres unmarked) [27d]", "HCT-15", "not fulfilled"),
    ("COc1ccc(C(c2cc(OC)c(OC)c(OC)c2)N2CCCC2)cc1 (centres unmarked) [25g]", "HCT-15", "fulfilled"),
]

* * *

System: MALME-3M
Assay: NCI 60 cell line screen (Melanoma)
Assay type: cell-based, human
Conditions: single dose 10 µM

# COMPOUND, Growth percentage (%)
records = [
    ("COc1ccc(C(c2cc(OC)c(OC)c(OC)c2)N2CCN(Cc3ccccc3)CC2)cc1 (centres unmarked) [27d]", 74.83),
    ("COc1ccc(C(c2cc(OC)c(OC)c(OC)c2)n2cncn2)cc1O (centres unmarked) [19e]", 70.24),
    ("COc1ccc(C(c2cc(OC)c(OC)c(OC)c2)n2ccnc2)cc1O (centres unmarked) [21l]", 66.57),
    ("COc1ccc(C(c2cc(OC)c(OC)c(OC)c2)N2CCCCC2)cc1 (centres unmarked) [26b]", 55.25),
    ("COc1ccc(C(c2cc(OC)c(OC)c(OC)c2)N2CCCC2)cc1 (centres unmarked) [25g]", 85.32),
]

* * *

Test system: HOP-92
Assay: NCI 60 cell line screen (Non-Small Cell Lung Cancer)
Assay type: cell-based, human
Details: HOP-92, single dose 10 µM

# COMPOUND, Growth percentage, %
data = [
    ("COc1ccc(C(c2cc(OC)c(OC)c(OC)c2)n2ccnc2)cc1O (stereo not shown) [21l]", 25.77),
    ("COc1ccc(C(c2cc(OC)c(OC)c(OC)c2)N2CCCC2)cc1 (stereo not shown) [25g]", 85.48),
    ("COc1ccc(C(c2cc(OC)c(OC)c(OC)c2)n2cncn2)cc1O (stereo not shown) [19e]", 43.92),
    ("COc1ccc(C(c2cc(OC)c(OC)c(OC)c2)N2CCN(Cc3ccccc3)CC2)cc1 (stereo not shown) [27d]", 70.59),
]
